assay.remarks: Aqueous solubility of the compound at pH 2
Type: physicochemical
endpoint.label: solubility (µg/mL)
// units = µg/mL; emit number, no label

Data request: Identify measured solubility associated with Cl.Cl.O=C(Nc1nc2ccccc2s1)N(CCC(c1ccccc1)c1ccccc1)CCN1CCOCC1
Data returned: 300

###

assay.remarks: Clearance in Sprague-Dawley rat chronic renal failure model at 0.3 mg/kg, iv
Type: ADME, organism-based
Parameters: dose 0.3 mg/kg, route intravenous
assay.setup: in vivo
endpoint.label: clearance
Answer format reminder: number followed by unit.

Data request: Give clearance for Cl.Cl.O=C(Nc1nc2ccccc2s1)N(CCC(c1ccccc1)c1ccccc1)CCN1CCOCC1
Data returned: 1.85 L/h/kg
